system: T-47D breast; assay: NCI-60 one-dose screen, 48 h; settings: 10 µM unless noted
About 83,000 compounds went through this panel and 20% of them were active in at least one assay; those are over-represented in the sample as a whole. Active and inactive are the calls of the source. The calls were made as follows: active = growth percent below 10; inactive = the rest.
Give your call using only these classes: Y for active, N for inactive

The examples below pair each entry with its known result.
>  <Compound>
C=C(C)C1CCC2(C)OC2C1 (configuration not stated)

>  <Discrete label>
N

$$$$
>  <Compound>
CC1CN(C2CCCCC2)C(=S)N(c2ccccc2)C1=O (configuration not stated)

>  <Discrete label>
N

$$$$

Tell me the recorded outcome of this test for O=C1NC(=O)C(c2ccccc2)(c2ccccc2)N1Cc1cn(-c2c3ccccc3nc3ccccc23)nn1 . N

Recorded test outcome, item CCCCOc1nc2ccc(OC)cc2cc1-c1cc(-c2ccc(Cl)cc2)nc(-c2ccc(Cl)cc2)c1 N

So what was the verdict on COc1ccc(-c2conc2-c2ccccc2)cc1 in this test? N

I would be grateful if you could indicate the recorded call for NCCCNc1nc2ccccc2c2c(=O)c3cccc(F)c3sc12 . N

For Cc1ccc(C(=O)NCCNc2nccc(-c3c(-c4cccc(F)c4)nc4sccn34)n2)cc1 , what call appears in the results of this test? N

Hi, sorry to bother you, what did the test record for C#C[C@]1(O)CC[C@H]2[C@@H]3CC=C4c5sc(Nc6cc(F)ccc6F)nc5CC[C@]4(C)[C@H]3CC[C@@]21C ? Y

What did this assay record as the result for NC(=O)Nc1ccc2ncnc(Nc3ccc(Cl)cc3)c2c1 ? N

Please let me know the test result on file for Cc1ccc(-c2nc(SCC(=O)Nc3nc(-c4ccc(Cl)cc4)cs3)[nH]c(=O)c2C#N)cc1 . N

Hi, do you know how COc1ccc2c(c1)C(C)Cc1c(ncnc1-n1c(C)nc3ccccc31)N2C (configuration not stated) came out in this test? N

// param item: Cc1cc(=O)oc2cc(OC(=O)CN3CCN(C)CC3)ccc12 ; yields the recorded call N

I would be grateful if you could indicate the recorded call for Nc1nc2ccccc2c2c(=O)c3cc(F)ccc3sc12 . N

Could you kindly confirm the outcome this assay logged for CCOC(=O)c1sc2ncc(-c3ccc(OC)cc3)n2c1C ? N

// param item: COc1ccc(-c2cc3c4c(nc5ccccc5c4c2)CC(c2cc(OC)c(OC)c(OC)c2)O3)cc1 (configuration not stated) ; yields the recorded call N
